Target: ΔF508-CFTR (Homo sapiens, UniProt P13569, DEL508-508)
Construct: host or cells: CFBE41o-, doxycycline-inducible
Sequence (P13569 with tags, fused parts or gaps DEL508-508): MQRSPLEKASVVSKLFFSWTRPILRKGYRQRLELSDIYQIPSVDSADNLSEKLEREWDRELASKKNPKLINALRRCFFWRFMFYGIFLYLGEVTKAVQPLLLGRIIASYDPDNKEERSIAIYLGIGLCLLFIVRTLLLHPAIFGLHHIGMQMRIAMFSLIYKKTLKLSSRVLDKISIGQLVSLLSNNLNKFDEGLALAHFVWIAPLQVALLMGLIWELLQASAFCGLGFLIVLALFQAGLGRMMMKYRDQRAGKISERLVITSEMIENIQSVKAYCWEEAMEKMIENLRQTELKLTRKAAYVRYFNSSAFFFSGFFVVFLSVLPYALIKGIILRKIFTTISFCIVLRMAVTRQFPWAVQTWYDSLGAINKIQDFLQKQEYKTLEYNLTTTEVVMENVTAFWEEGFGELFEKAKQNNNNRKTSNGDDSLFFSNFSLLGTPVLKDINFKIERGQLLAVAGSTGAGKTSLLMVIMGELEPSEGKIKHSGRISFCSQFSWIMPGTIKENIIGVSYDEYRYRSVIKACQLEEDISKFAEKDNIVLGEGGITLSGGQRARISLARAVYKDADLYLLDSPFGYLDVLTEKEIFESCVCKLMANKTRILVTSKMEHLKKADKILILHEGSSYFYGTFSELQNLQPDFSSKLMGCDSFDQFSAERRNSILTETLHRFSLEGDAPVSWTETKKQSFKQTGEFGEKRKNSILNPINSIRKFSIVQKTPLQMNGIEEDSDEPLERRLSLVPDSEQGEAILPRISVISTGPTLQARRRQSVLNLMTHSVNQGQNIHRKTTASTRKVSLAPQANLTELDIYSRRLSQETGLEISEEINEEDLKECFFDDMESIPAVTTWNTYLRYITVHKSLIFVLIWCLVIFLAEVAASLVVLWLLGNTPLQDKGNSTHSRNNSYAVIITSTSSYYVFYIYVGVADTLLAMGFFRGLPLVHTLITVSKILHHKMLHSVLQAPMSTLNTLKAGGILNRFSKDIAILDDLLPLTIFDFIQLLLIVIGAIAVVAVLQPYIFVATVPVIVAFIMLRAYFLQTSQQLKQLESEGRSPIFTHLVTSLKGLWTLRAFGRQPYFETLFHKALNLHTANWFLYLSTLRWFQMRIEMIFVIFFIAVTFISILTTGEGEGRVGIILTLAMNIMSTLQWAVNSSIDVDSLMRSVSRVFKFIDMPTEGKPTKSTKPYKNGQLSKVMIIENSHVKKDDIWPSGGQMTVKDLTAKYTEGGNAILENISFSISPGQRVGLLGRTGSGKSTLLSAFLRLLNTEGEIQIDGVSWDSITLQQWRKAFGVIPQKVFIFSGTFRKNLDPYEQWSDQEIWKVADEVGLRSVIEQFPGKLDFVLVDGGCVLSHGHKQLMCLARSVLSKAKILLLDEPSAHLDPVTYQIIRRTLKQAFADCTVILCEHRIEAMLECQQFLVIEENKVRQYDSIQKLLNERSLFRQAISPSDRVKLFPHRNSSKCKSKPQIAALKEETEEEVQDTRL
Test: CFTR cell surface levels using HRP-tagged ΔF508-CFTR expressing CFBE cells, intrinsic corrector capacity
Type: cell-based
Settings: HRP-tagged ΔF508-CFTR CFBE41o- cells, compounds alone (intrinsic corrector capacity), 20 hours at 33° C.; read-out: EC50
pEC50: −log10 of the molar value.
ASSAY_METRIC: pEC50

1) Cc1nn(-c2ccccc2)c2nc(C(=O)O)cc(C(=O)N3CCCCC3)c12; < 5.00
2) CC(C)c1nn(C2CCN(CC#N)C2)c2nc(C(=O)O)cc(-c3ccc(N4CCOCC4)cc3)c12 (stereo not drawn); < 5.00
3) CC(C)c1nn(C2CCCCC2)c2nc(C(=O)O)cc(-c3ccnn3C)c12; < 5.00

---

Target: ΔF508-CFTR (Homo sapiens, UniProt P13569, DEL508-508)
Construct: host or cells: CFBE41o-, doxycycline-inducible
Test: CFTR cell surface levels using HRP-tagged ΔF508-CFTR expressing CFBE cells, intrinsic corrector capacity
Format: cell-based
Conditions: HRP-tagged ΔF508-CFTR expressing CFBE cells; intrinsic corrector capacity (no co-corrector); 33° C., 20 hours; read-out: EC50
pEC50: −log10 of the molar value.
ASSAY_METRIC: pEC50

1. CC(C)N(CCOc1cc(C(=O)O)nc2c1c(C1CCC1)nn2-c1ccccc1)C1COC1; 6.08
2. CCC1(F)CN(c2cc(C(=O)O)nc3c2c(C2CCC2)nn3-c2ccccc2)C1; 6.14
3. COCC(C)N1CCN(c2cc(C(=O)O)nc3c2c(C2CCC2)nn3-c2ccccc2)CC1 (stereo not shown); 6.74
4. N#CC1CCN(c2ccc(-c3cc(C(=O)O)nc4c3c(OC3CCOC3)nn4-c3ccccc3)cn2)CC1 (stereo not shown); 6.03

---

Target: ΔF508-CFTR (Homo sapiens, UniProt P13569, DEL508-508)
Construct: host or cells: CFBE41o-, doxycycline-inducible
Assay: CFTR cell surface levels using HRP-tagged ΔF508-CFTR expressing CFBE cells, intrinsic corrector capacity
Assay type: cell-based
Conditions: HRP-tagged ΔF508-CFTR expressing CFBE cells; intrinsic corrector capacity (no co-corrector); 33° C., 20 hours
ASSAY_METRIC: % Activation (%)

1) CNC[C@@H]1CCN(c2cc(C(=O)O)nc3c2c(C2CCC2)nn3-c2ccccc2)C1 [compound 676]; 35.03
2) CN(C)CCCOc1cc(C(=O)O)nc2c1c(C1CCC1)nn2-c1ccccc1 [compound 635]; 86.1
3) O=C(O)c1cc(N2CC3(CCC3)C2)c2c(C3CCC3)nn(-c3ccccc3)c2n1 [compound 426]; 76.06
4) CC(C)c1nn(-c2ccc(F)cc2)c2nc(C(=O)O)cc(N3CCN(C(=O)N(C)C)CC3)c12 [compound 774]; 163
5) O=C(O)c1cc(N2CCC3(C2)CC3(F)F)c2c(C3CCC3)nn(-c3ccccc3)c2n1 (centres unmarked) [compound 423]; 113.4

---

Quick list: % Activation per entry.
Target: ΔF508-CFTR (Homo sapiens, UniProt P13569, DEL508-508)
Construct: host or cells: CFBE41o-, doxycycline-inducible
Assay: CFTR cell surface levels using HRP-tagged ΔF508-CFTR expressing CFBE cells, in the presence of a co-corrector
Assay type: cell-based
Details: HRP-tagged ΔF508-CFTR expressing CFBE cells, in the presence of 3 μM co-corrector
ASSAY_METRIC: % Activation (%)

1. CC(C)c1nn(-c2ccc(F)cc2)c2nc(C(=O)O)cc(N3CCC4(CCO4)CC3)c12; 275.7
2. O=C(O)c1cc(N2CCC(O)CC2)c2c(C3CCC3)nn(-c3ccccc3)c2n1; 367.65
3. Cc1nn(-c2ccccc2)c2nc(C(=O)O)cc(-c3ccc(N4C[C@@H]5C[C@H]4CO5)cc3)c12; 401.3
4. O=C(O)c1cc(N2CCOC(CO)C2)c2c(C3CCC3)nn(-c3ccccc3)c2n1 (stereo not shown); 223.4
5. N#CC1CCN(C2CCN(c3cc(C(=O)O)nc4c3c(C3CCC3)nn4-c3ccc(F)cc3)CC2)C1 (stereo not shown); 611.45
6. O=C(O)c1cc(-c2ccc(N3CCOCC3)cc2)c2c(C3CCC3)nn(-c3ccc(C(F)(F)F)cc3)c2n1; 331.9
7. CN(C)c1ccc(-c2cc(C(=O)O)nc3c2c(C(C)(C)C)nn3C2CCCCC2)cc1; 388.7
8. O=C(O)c1cc(N2CCC(CCCN3CCCC3)CC2)c2c(C3CCC3)nn(-c3ccccc3)c2n1; 396.9
9. Cc1nn(-c2ccccc2)c2nc(C(=O)O)cc(N3CCC(N4CCOCC4)CC3)c12; 279.1
10. Cc1cccc(-n2nc(C(C)C)c3c(N4CCC5(CC4)COC5)cc(C(=O)O)nc32)c1; 309.3
